Listing: EC50 of selected molecules
System: RSV
Assay: RSV inhibitory activity (WT activity)
Format: cell-based, respiratory syncytial virus
Details: human respiratory syncytial virus; Table 1, wild-type RSV
Answers without a unit are incomplete; give the number and then its unit.

- molecule: "O=c1n(Cc2nc3ccccn3c2CCC2CC2)c2cnccc2n1C1CC1 [Compound P3]"
  EC50: "5.25 nM"

We now examine a further molecule.
## Task Query (molecule): O=c1n(Cc2nc3cc(Cl)ccn3c2CCCCO)c2cnccc2n1C1CC1 [Compound P1] ; field requested: EC50
## Result 0.4 nM
